Source of measurements: patent US8895733B2

Target or test system: Nav 1.7 (Homo sapiens, UniProt Q15858)
Construct: expressed in transfected cells
Sequence (Q15858 whole entry): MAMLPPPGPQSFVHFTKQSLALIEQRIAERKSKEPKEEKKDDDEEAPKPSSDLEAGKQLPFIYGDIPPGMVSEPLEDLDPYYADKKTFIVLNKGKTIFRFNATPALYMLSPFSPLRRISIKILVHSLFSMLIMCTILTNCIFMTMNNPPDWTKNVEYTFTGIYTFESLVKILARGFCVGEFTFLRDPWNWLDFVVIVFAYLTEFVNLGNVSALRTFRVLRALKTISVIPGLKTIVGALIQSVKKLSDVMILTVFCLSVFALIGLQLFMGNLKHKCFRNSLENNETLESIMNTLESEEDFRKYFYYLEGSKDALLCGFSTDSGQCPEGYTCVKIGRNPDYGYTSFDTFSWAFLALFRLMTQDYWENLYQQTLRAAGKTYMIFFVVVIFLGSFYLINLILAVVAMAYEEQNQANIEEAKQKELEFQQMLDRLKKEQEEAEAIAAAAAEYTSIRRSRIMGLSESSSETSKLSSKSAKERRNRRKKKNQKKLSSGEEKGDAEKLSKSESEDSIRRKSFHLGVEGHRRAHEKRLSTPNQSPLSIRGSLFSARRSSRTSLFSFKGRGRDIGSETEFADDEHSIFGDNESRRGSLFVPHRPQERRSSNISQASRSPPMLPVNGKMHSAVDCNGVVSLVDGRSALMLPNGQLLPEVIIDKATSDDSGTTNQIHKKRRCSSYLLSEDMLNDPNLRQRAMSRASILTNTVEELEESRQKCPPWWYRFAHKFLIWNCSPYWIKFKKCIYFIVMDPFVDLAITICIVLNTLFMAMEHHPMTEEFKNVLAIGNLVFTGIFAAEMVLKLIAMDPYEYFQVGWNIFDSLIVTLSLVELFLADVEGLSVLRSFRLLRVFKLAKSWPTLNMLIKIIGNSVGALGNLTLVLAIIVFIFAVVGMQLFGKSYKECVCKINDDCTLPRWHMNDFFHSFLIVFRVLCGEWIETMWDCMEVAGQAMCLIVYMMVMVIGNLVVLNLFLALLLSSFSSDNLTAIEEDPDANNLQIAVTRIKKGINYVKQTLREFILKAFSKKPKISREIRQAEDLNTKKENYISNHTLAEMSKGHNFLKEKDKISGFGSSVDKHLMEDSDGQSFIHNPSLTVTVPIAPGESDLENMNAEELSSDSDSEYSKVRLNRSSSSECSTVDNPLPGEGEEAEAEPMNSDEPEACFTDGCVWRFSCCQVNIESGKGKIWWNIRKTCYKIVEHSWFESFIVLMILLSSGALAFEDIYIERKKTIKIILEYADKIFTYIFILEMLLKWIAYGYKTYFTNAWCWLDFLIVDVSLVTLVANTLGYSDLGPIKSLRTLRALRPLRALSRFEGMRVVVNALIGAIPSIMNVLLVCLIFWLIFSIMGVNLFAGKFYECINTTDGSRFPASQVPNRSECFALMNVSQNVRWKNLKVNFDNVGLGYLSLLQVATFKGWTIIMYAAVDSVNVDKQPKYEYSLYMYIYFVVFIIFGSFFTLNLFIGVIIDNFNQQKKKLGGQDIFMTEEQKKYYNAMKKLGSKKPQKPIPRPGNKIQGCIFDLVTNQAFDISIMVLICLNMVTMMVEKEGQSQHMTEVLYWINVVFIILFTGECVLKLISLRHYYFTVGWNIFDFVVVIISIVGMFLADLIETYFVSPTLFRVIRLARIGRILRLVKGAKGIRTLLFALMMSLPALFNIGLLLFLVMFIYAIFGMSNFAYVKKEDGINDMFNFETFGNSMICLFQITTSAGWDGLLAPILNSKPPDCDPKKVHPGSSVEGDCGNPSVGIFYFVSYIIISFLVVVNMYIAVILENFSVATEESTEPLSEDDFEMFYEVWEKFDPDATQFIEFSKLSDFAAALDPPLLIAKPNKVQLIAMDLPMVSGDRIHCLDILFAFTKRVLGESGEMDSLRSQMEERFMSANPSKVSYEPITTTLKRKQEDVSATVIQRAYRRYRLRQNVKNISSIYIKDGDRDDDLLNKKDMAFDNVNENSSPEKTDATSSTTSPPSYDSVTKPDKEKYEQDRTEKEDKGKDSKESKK
Assay text: Whole-cell voltage clamp electrophysiology, automated patch clamp (marker c in Table of Examples)
Assay type: cell-based
Test settings: marker c = Automated patch clamp data; read-out: Nav 1.7 activity
Quick rule for you: IC50 under 800 nM gets Fulfilled, anything else gets Not fulfilled.

Molecule: CN(c1ccccc1)c1nc(N)nc(-c2noc(C(=O)N3C[C@@H]4[C@@H](COC5CCCC5)[C@@H]4C3)n2)n1 [Example 405]
Class name: Not fulfilled

Qu. Is IC50 of CN(c1ccccc1)c1nc(N)nc(-c2noc(C(=O)N3CCC(CSCC(F)(F)F)CC3)n2)n1 [Example 401] strictly below 800 nM?
Ans. Not fulfilled

Qu. Another: CN(c1ccccc1)c1nc(N)nc(-c2noc([C@@H]3CCCN3CCC(F)(F)F)n2)n1 [Example 441]
Ans. Not fulfilled

Qu. Another: Nc1nc(Nc2ccc(F)c(F)c2)nc(-c2noc(-c3ccc(OCC(F)(F)F)nc3)n2)n1 [Example 416]
Ans. Not fulfilled

Qu. Another: CN(c1ccccc1)c1nc(N)nc(-c2noc(N3CCC(SCC(F)(F)F)CC3)n2)n1 [Example 362]
Ans. Fulfilled
